Provenance of the data: ChEMBL document CHEMBL3351930

- System: MCF7
- run-description: Anticancer activity against human MCF7 cells assessed as cell viability at 12.5 uM after 24 hrs by MTT assay
- Assay type: functional
- setup-conditions: MCF7, 24 h, read-out: Activity
test-readout: viability at 12.5 µM
Could you kindly put the unit after your number?

Known results for molecules:
molecule	viability at 12.5 µM
OCC(O)Cn1nc2c(Br)c(Br)c(Br)c(Br)c2n1 (racemic)	145%
C[C@H](O)Cn1nc2c(Br)c(Br)c(Br)c(Br)c2n1	119%
OC(CCn1nc2c(Br)c(Br)c(Br)c(Br)c2n1)c1ccccc1 (racemic)	115%
OC(CCn1nc2c(Br)c(Br)c(Br)c(Br)c2n1)c1cccc(Cl)c1 (stereo not given)	97%
C[C@H](O)CCn1nc2c(Br)c(Br)c(Br)c(Br)c2n1	112%

Which value of viability at 12.5 µM has been reported for CC(O)Cn1nc2c(Br)c(Br)c(Br)c(Br)c2n1 (racemic) in the records?
118%

What about this molecule? CC(O)CCn1nc2c(Br)c(Br)c(Br)c(Br)c2n1 (racemic)
99%

What about this molecule? OC(CCn1nc2c(Br)c(Br)c(Br)c(Br)c2n1)c1cccc(Br)c1 (stereo not given)
81%

What about this molecule? Brc1c(Br)c(Br)c2[nH]nnc2c1Br
111%

What about this molecule? OC(CCn1nc2c(Br)c(Br)c(Br)c(Br)c2n1)c1ccc(Cl)cc1 (stereo not given)
90%
